# Procedure Summary: In vitro inhibitory activity towards [3H]cocaine binding to rat striatal tissue
Property: pIC50
Hey, just a heads up that pIC50 is the negative log base 10 of the concentration in molar.

// field: pIC50; key: COC(=O)[C@H]1[C@@H](OC(=O)c2ccccc2)C[C@@H]2CC[C@H]1N2C [Cocaine (-)] ; value = 7.19

====

# Procedure Summary: In vitro inhibitory activity towards [3H]cocaine binding to rat striatal tissue
Property: pIC50
Hey, just a heads up that pIC50 is the negative log base 10 of the concentration in molar.

| Compound | pIC50 |
| --- | --- |
| COC(=O)C1C2CC[C@H](C[C@@H]1OC(=O)Nc1cccc(N)c1)N2C (some centres undefined) | 5.68 |
| COC(=O)C1C2CC[C@H](C[C@@H]1OC(=O)Nc1cccc([N+](=O)[O-])c1)N2C (some centres undefined) | 7.43 |

// field: pIC50; key: COC(=O)C1C2CC[C@H](C[C@@H]1OC(=O)Nc1ccccc1)N2C (some centres undefined) ; value = 5.25

// field: pIC50; key: COC(=O)C1C2CC[C@H](C[C@@H]1OC(=O)Nc1ccc([N+](=O)[O-])cc1)N2C (some centres undefined) ; value = 5.96
